- TARGET OR SYSTEM: Corticotropin-releasing factor receptor 2/Corticotropin-releasing factor-binding protein (Homo sapiens, UniProt P24387+Q13324)
- Sequence (Q13324 whole entry): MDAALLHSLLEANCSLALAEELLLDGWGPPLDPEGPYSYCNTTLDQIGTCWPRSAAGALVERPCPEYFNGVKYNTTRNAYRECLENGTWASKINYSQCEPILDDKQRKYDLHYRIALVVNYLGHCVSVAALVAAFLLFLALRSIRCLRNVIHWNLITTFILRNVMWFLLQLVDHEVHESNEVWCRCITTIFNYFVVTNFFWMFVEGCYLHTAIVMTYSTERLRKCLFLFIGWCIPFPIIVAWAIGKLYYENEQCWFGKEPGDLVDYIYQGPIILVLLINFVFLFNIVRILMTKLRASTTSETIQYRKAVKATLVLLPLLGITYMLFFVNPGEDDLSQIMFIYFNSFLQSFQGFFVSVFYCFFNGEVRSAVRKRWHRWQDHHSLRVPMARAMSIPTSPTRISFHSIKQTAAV
- Sequence (P24387 whole entry): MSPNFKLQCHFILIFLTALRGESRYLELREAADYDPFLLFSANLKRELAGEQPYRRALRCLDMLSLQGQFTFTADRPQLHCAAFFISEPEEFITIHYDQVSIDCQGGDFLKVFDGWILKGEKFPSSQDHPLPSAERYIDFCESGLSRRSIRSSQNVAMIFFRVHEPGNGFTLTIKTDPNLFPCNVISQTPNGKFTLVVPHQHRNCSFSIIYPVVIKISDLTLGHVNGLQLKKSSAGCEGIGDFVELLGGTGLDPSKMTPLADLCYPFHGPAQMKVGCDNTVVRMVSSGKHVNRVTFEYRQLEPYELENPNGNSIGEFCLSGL
- METHOD DESCRIPTION: Dose Response confirmation of uHTS hits for small molecule antagonists of the CRF-binding protein and CRF-R2 receptor complex.
- Type: functional
- STATED CONDITIONS: read-out: IC50_Mean
Activity calls are given as the source filed them.
EXPERIMENTAL ENDPOINT: IC50

Please review the entries below; each comes with its answer.
>>> print(df.to_string())
                                   compound              reported
0  CCOC(=O)C1(CC2CCCCO2)CCN(Cc2nccn2-c2ccc(OC)cc2)CC1 (stereo not drawn)  > 47.1 µM (inactive)
1        O=C(NCCO)c1c(O)c2cccc3c2n(c1=O)CC3  > 47.1 µM (inactive)
2  COC(=O)C1C(c2ccccc2)C(C(=O)OCc2ccco2)C1c1ccccc1 (stereo not drawn)  > 47.1 µM (inactive)
3  COc1ccc(N2C(=O)CSC23C(=O)N2c4c(cccc43)C(C)=CC2(C)C)cc1 (stereo not drawn)        11 µM (active)

input: Answer with reported IC50 of CCOc1ccccc1N(CC(=O)N1CCC(C(N)=O)CC1)S(=O)(=O)c1ccc(SC)cc1
output: > 47.1 µM (inactive)

input: // Input: O=C(O)c1ccc(NC(=S)NC(=O)c2ccc(-c3ccccc3)cc2)cc1 . Output its IC50 only.
output: 6.04 µM (active)

input: Output measured IC50 for this item: CN(CC(=O)NCc1ccc(F)cc1)S(=O)(=O)c1ccc(Br)s1
output: > 47.1 µM (inactive)

input: Give a short answer stating reported IC50 for Cc1ccc(NC(=O)/C(C#N)=C/c2cn(CC(=O)NCc3ccco3)c3ccccc23)cc1C .
output: > 47.1 µM (inactive)

---

Item-by-item account of EC50
- System: Streptococcus sp. 'group A'
- METHOD DESCRIPTION: Streptococcus pyogenes SK(-)GAS viability under kanamycin – luminescence, BacTiterGlo, confirmation, counter-screen for streptokinase expression inhibitor project, dose response (AID 1900)
- Assay type: functional, organism-based
Active and inactive are the calls of the source.

input: For COc1cc(/C=C2/SC(=S)N(Cc3ccccc3)C2=O)cc(Cl)c1O , write its EC50.
output: 5.2 µM (active)

input: Answer with reported EC50 of O=Cc1cc(N=Nc2ccccc2Cl)ccc1O
output: 5.05 µM (active)

input: Kindly indicate its recorded EC50. Item: CCC(C)Sc1cccc(-c2nc3ccc(C)cn3c2NCc2ccccc2)c1 (configuration not stated)
output: 3.25 µM (active)

input: Give EC50 for COc1ccccc1-c1nnc(NC(=O)CCS(=O)(=O)c2ccccc2)o1
output: > 150 µM (not active)

input: Look up EC50 of O=C1c2n[nH]c(-c3ccccc3O)c2C(c2cccc(Cl)c2)N1Cc1ccco1 (configuration not stated) and report it.
output: 6.78 µM (active)

---

- TARGET OR SYSTEM: Streptokinase A (Streptococcus pyogenes serotype M1)
- Sequence (P10520 whole entry): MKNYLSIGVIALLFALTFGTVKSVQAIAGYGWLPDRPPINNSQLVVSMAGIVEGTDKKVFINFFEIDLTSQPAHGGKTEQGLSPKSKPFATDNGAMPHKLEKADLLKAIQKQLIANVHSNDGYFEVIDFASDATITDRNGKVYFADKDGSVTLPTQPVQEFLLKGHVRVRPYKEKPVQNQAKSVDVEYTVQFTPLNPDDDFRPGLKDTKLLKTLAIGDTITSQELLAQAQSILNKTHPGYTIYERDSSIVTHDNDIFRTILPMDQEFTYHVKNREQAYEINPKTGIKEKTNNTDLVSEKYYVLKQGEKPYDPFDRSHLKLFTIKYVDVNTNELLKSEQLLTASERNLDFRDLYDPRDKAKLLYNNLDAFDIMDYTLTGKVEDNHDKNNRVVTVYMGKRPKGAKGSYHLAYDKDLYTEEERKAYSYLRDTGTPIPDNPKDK
- METHOD DESCRIPTION: viability-normalized secreted streptokinase activity reduction – plasminogen activation absorbance, OD405, dose response (AID 1914);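 also: secreted streptokinase activity via plasminogen activation per viability signal from cell pellet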
- Type: functional, Streptococcus pyogenes M1 GAS
The source made the active and inactive calls.
EXPERIMENTAL ENDPOINT: EC50

>>> print(df.to_string())
                              sample_smiles               reported
0   CC(C)c1ccc(/C=N/n2c(S)nnc2-c2ccccc2)cc1  > 150 µM (not active)
1  Cc1oc(-c2cc(Cl)cc(Cl)c2)cc1C(=O)NCCc1ccccc1       2.57 µM (active)

input: For the compound CSc1ccc(/C=C2\CCn3c2nc2cc(C(=O)O)ccc2c3=O)cc1 , report EC50.
output: > 150 µM (not active)

input: Specify EC50 for O=C(Nc1nnc(-c2ccccn2)o1)c1cccc(Cl)c1 and stop.
output: > 150 µM (not active)

input: Tell me EC50 reported for CC(C)(C)OC(=O)NCCCC[C@H](NC(=O)c1[nH]cnc1C(=O)Nc1ccc(Cl)cc1)C(=O)OC(C)(C)C
output: > 150 µM (not active)
